# test target: human Cot/Tpl2 kinase (Homo sapiens)
# Construct: human Cot/Tpl2 kinase construct encoding residues 30-398; 6His (N); made in house; host or cells: Sf9 insect cells (baculovirus system, BD Biosciences)
# Sequence (P41279 30-398): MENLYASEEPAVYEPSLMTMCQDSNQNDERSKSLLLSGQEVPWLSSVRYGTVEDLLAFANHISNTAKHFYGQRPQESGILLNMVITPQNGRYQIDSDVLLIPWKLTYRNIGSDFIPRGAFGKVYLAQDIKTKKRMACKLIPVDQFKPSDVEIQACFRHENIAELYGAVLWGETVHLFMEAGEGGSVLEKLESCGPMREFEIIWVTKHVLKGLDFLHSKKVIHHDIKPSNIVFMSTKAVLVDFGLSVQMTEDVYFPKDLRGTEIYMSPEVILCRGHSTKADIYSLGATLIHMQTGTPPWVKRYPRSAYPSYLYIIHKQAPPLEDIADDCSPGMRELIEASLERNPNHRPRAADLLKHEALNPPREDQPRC
# method description: Tpl2/Cot kinase assay, GST-MEK1 phosphorylation detected by ELISA (DELFIA Eu)
# Type: biochemical
# settings: Table 1; 0.4 nM Tpl2, 35 nM GST-MEK1, 50 uM ATP, 1 h at 30° C.
pIC50: −log10 of the molar value.
metric: pIC50

Worked cases, answers included:
• N#Cc1cnc2cnc(NCCN3CCOCC3)cc2c1Nc1cccc(N)c1 = < 5.00
• COc1ccc(CNc2cc3c(Nc4cccc(C(C)C)c4)c(C#N)cnc3cn2)cc1 = < 4.40
• Cc1cccc(Nc2c(C#N)cnc3cnc(NCc4cccnc4)cc23)c1 = < 4.40
• N#Cc1cnc2cnc(NCCN3CCOCC3)cc2c1Nc1cccc(-c2ccco2)c1 = < 5.00
• CN(c1ccc(F)c(Cl)c1)c1c(C#N)cnc2cnc(NCCN3CCOCC3)cc12 = < 4.40

# next compound below
Which pIC50 value belongs to N#Cc1cnc2cnc(NCc3cccnc3)cc2c1Nc1ccc(OC(F)(F)F)cc1 ?
< 4.40
